test: DPPH radical assay without or with α-amylase; conditions: with 10 μl α-amylase (300 μM); mean ± RSD (n = 3); read-out: Add α-amylase IC50 (DPPH radical scavenging)
Measured pIC50 values are reported for all entries that follow.
In plain terms, pIC50 is the concentration in mol/L turned into minus its base-10 logarithm.

compound: COc1ccc(-c2cc(=O)c3c(O)cc(O[C@@H]4O[C@H](CO[C@@H]5O[C@@H](C)[C@H](O)[C@@H](O)[C@H]5O)[C@@H](O)[C@H](O)[C@H]4O)cc3o2)cc1 [Buddleoside]
pIC50: 4.10
--
compound: O=c1cc(-c2ccc(O)c(O)c2)oc2cc(O)cc(O)c12
pIC50: 4.12

Could you now consider this next compound?
Ask | So what does the record say about pIC50 for COc1ccc(-c2cc(=O)c3c(O)cc(O)cc3o2)cc1 ?
Reply | 4.11

----------
target: α-amylase (Bacillus subtilis); construct: purchased Shanghai Ryon Biological Technology Co. Ltd; experiment: Inhibition kinetics of α-amylase by Lineweaver-Burk plots; assay type: biochemical; conditions: slopes of Lineweaver-Burk plots vs flavonoid concentration (0, 5, 10 μM), starch substrate; read-out: Ki
assay.metric: pKi
In plain terms, pKi is the concentration in mol/L turned into minus its base-10 logarithm.

Ask | So what does the record say about pKi for O=c1cc(-c2ccc(O)c(O)c2)oc2cc(O)cc(O)c12 ?
Reply | 4.57

----------
Measured pKd values are reported for all entries that follow.
target: α-amylase (Bacillus subtilis, UniProt P00691); construct: purchased Shanghai Ryon Biological Technology Co. Ltd; experiment: SPR binding assay of flavonoids to immobilized α-amylase
Sequence (P00691 42-659): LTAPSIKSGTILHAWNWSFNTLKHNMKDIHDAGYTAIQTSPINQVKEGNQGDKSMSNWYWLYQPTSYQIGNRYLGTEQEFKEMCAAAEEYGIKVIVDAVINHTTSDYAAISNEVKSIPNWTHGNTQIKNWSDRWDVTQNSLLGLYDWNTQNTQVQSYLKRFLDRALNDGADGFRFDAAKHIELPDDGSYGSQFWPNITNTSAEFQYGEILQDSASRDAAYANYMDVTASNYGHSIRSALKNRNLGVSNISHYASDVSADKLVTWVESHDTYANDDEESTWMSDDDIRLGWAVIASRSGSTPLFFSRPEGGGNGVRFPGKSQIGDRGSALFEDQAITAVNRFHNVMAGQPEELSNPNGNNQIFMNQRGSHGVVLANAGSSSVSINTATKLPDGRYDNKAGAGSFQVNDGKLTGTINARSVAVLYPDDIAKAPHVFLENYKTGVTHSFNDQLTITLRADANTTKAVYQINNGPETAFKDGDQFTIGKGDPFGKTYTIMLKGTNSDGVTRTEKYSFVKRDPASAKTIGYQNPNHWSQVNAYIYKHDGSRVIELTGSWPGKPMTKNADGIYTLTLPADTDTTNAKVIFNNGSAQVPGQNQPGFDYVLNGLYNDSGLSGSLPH
In plain terms, pKd is the concentration in mol/L turned into minus its base-10 logarithm.

molecule: COc1ccc(-c2cc(=O)c3c(O)cc(O[C@@H]4O[C@H](CO[C@@H]5O[C@@H](C)[C@H](O)[C@@H](O)[C@H]5O)[C@@H](O)[C@H](O)[C@H]4O)cc3o2)cc1 [Buddleoside]
pKd: 2.48

Could you now consider this next molecule?
Ask | Entry COc1ccc(-c2cc(=O)c3c(O)cc(O)cc3o2)cc1 , system α-amylase (Bacillus subtilis, UniProt P00691): what pKd was measured?
Reply | 2.53
